# Test system: E. coli
# assay.protocol: Antibacterial activity, minimum inhibitory concentration, E. coli
# Assay type: cell-based
# measurement.conditions: Escherichia coli, serial dilution, DST agar + 10% horse blood, 10^-4 dilution inoculum, 37°, 18 h
result.type: MIC

I'd like to know its MIC. The compound in question is CC(=O)N[C@H]1C(=O)N2C(C(=O)O)=C(C)n3nncc3[C@@H]12 (relative stereo) [Compound 35]
> 100 µg/mL

How about CC1=C(C(=O)O)N2C(=O)C(NC(=O)[C@H](N)c3ccccc3)C2c2cnnn21 (stereo partly shown) [Compound 28] ?
> 100 µg/mL

How about CC1=C(C(=O)O)N2C(=O)[C@H](NC(=O)C(C(=O)Oc3ccccc3)c3ccccc3)[C@@H]2c2cnnn21 (relative stereo) [Compound 22] ?
100 µg/mL

How about CC1=C(C(=O)O)N2C(=O)[C@H](NC(=O)COc3ccccc3)[C@@H]2c2cnnn21 (relative stereo) [Compound 15] ?
> 100 µg/mL

----------
# System: S. faecalis
# assay.protocol: Antibacterial activity, minimum inhibitory concentration, S. faecalis
# Type: cell-based
# measurement.conditions: Enterococcus faecalis, serial dilution, DST agar + 10% horse blood, 10^-2 dilution inoculum, 37°, 18 h
Assign MIC to each entry below.

I'd like to know its MIC. The compound in question is CC1=C(C(=O)O)N2C(=O)[C@H](NC(=O)Cc3cccs3)[C@@H]2c2cnnn21 (relative stereo)
25 µg/mL

How about CC1=C(C(=O)O)N2C(=O)[C@H](NC(=O)C(C(=O)Oc3ccccc3)c3ccccc3)[C@@H]2c2cnnn21 (relative stereo) ?
> 100 µg/mL

How about CC1=C(C(=O)O)N2C(=O)[C@@H](NC(=O)[C@H](O)c3ccccc3)[C@H]2c2cnnn21 ?
100 µg/mL

How about CC1=C(C(=O)O)N2C(=O)[C@H](NC(=O)[C@H](O)c3ccccc3)[C@@H]2c2cnnn21 ?
> 100 µg/mL

How about CC1=C(C(=O)O)N2C(=O)[C@@H](NC(=O)COc3ccccc3)[C@H]2c2cnnn21 ?
50 µg/mL

How about CC(=O)N[C@H]1C(=O)N2C(C(=O)O)=C(C)n3nncc3[C@@H]12 (relative stereo) ?
> 100 µg/mL

How about CC1=C(C(=O)O)N2C(=O)[C@H](NC(=O)COc3ccccc3)[C@@H]2c2cnnn21 (relative stereo) ?
> 100 µg/mL

How about CC1=C(C(=O)O)N2C(=O)C(NC(=O)[C@H](N)c3ccccc3)C2c2cnnn21 (some centres unmarked) ?
> 100 µg/mL

----------
# Tested on: E. coli
# assay.protocol: Antibacterial activity, minimum inhibitory concentration, E. coli
# Format: cell-based
# measurement.conditions: Escherichia coli, serial dilution, DST agar + 10% horse blood, 10^-4 dilution inoculum, 37°, 18 h
# Description: Minimum Inhibitory Concentration μg/ml^a ^a Determined by serial dilution on DST agar containing 10% horse blood using an inoculum of 0.001 ml of a 10^-2 dilution for Grampositive bacteria or a 10^-4 dilution for Gramnegative organisms. MIC values were read after incubation at 37° for eighteen hours.
result.type: MIC

I'd like to know its MIC. The compound in question is CC1=C(C(=O)O)N2C(=O)[C@@H](NC(=O)COc3ccccc3)[C@H]2c2cnnn21
> 50 µg/mL

How about CC1=C(C(=O)O)N2C(=O)[C@H](NC(=O)[C@H](O)c3ccccc3)[C@@H]2c2cnnn21 ?
> 100 µg/mL

How about CC1=C(C(=O)O)N2C(=O)[C@@H](NC(=O)[C@H](O)c3ccccc3)[C@H]2c2cnnn21 ?
> 100 µg/mL

Source: patent US4444771A
